- SYSTEM: human brain NOS (Homo sapiens, UniProt P29475)
PARAMETER MEASURED: Ki

{"COMPOUND": "N=C(N)Nc1ccc(CC(N)C(=O)O)cc1 (racemic)", "RESULT": "> 50 µM"}
{"COMPOUND": "CCSC(=N)NCc1ccc(CC(N)C(=O)O)s1 (racemic)", "RESULT": "≤ 10 µM"}
{"COMPOUND": "CCSC(=N)Nc1ccc(C[C@H](N)C(=O)O)cc1 [Compound 30, 4-(S-ethylisothioureido)-L-phenylalanine]", "RESULT": "≤ 0.5 µM"}

Query compound follows.
(Q) Find the measured Ki of CSC(=N)Nc1cccc(CC(N)C(=O)O)c1 (racemic) with human brain NOS (Homo sapiens, UniProt P29475) as test system.
(A) ≤ 10 µM

====

molecules and their reported pKi
- SYSTEM: inducible human NOS (Homo sapiens, UniProt P35228)
- Construct: Purification of NOS cytokine-induced human colorectal adenocarcinoma DLD-1 cells; 2',5' ADP Sepharose purified
- MEASUREMENT DESCRIPTION: Inhibition of inducible human NOS (citrulline formation), enzyme from cytokine-induced DLD-1 cells
- TEST SETTINGS: NOS from cytokine-induced DLD-1 cells; 1 μM L-[14C] arginine; pH 7.4; 10 μM FAD, no calmodulin/CaCl2
pKi: −log10 of the molar value.

Illustrative cases are given below, each with its answer.
{"MOLECULE": "CCSC(=N)NCc1ccc(CC(N)C(=O)O)s1 (racemic) [Compound 23]", "RESULT": "≥ 5.00"}
{"MOLECULE": "N=C(N)Nc1ccc(CC(N)C(=O)O)s1 (racemic) [Compound 2, 3-(5-Guanidino-2-thienyl)-DL-alanine]", "RESULT": "≥ 4.30"}
{"MOLECULE": "CCSC(=N)Nc1ccc(CC(N)C(=O)O)s1 (racemic) [Compound 4]", "RESULT": "< 4.30"}
{"MOLECULE": "CSC(=N)NCc1ccc(C(N)C(=O)O)s1 (racemic) [Compound 24]", "RESULT": "< 4.30"}

(Q) Give the observed pKi of NC(=NC1CC1)Nc1ccccc1CC(N)C(=O)O (racemic) [Compound 11] for inducible human NOS (Homo sapiens, UniProt P35228).
(A) ≥ 6.00

====

pKi by entry:
- SYSTEM: human placental NOS (Homo sapiens)
pKi: −log10 of the molar value.

(Q) Tell me its pKi on human placental NOS (Homo sapiens): N=C(Nc1ccc(CC(N)C(=O)O)s1)NC1CC1 (racemic) [Compound 5]
(A) ≥ 5.00

(Q) Give pKi for NC(=S)Nc1ccc(C[C@H](N)C(=O)O)cc1 [Compound 28, 4-thioureido-L-phenylalanine] tested on human placental NOS (Homo sapiens).
(A) < 4.30

(Q) // fetch pKi for CNC(N)=Nc1cccc(CC(N)C(=O)O)c1 (racemic) [Compound 16, 3-N-methylguanidino-DL-phenylalanine] ; system: human placental NOS (Homo sapiens)
(A) ≥ 5.00

(Q) Give pKi only, for NC(N)=Nc1ccccc1CC(N)C(=O)O (racemic) [Compound 3, 2-Guanidino-DL-phenylalanine] , using human placental NOS (Homo sapiens) data.
(A) ≥ 6.30

(Q) Fill in pKi for CSC(=N)Nc1cccc(CC(N)C(=O)O)c1 (racemic) [Compound 26] tested with human placental NOS (Homo sapiens).
(A) ≥ 5.00

====

- SYSTEM: human placental NOS (Homo sapiens)
pKi: −log10 of the molar value.
PARAMETER MEASURED: pKi

Before answering, review these 3 worked examples.
{"COMPOUND": "CNC(=N)Nc1ccc(CC(N)C(=O)O)cc1 (racemic)", "RESULT": "≥ 4.30"}
{"COMPOUND": "N=C(NCc1ccc(CC(N)C(=O)O)s1)NC1CC1 (racemic)", "RESULT": "< 4.30"}
{"COMPOUND": "CCSC(=N)NCc1ccc(CC(N)C(=O)O)s1 (racemic)", "RESULT": "≥ 5.00"}

Shift focus to the following entry.
(Q) Find pKi for CSC(=N)Nc1ccccc1CC(N)C(=O)O (racemic) on human placental NOS (Homo sapiens) and write it down.
(A) ≥ 6.00
